The values you see were collected from PubChem BioAssay (NCI).

System: KM20L2 colon
Assay: NCI tumour cell line growth inhibition, 48 h
recordedMetric: TGI

COc1ccc(-c2cn3ccsc3n2)cc1 = > 100 µM
COc1ccc2c(c1)CCC1C3(CCCC21C)OCCO3 (stereo unspecified) = 39.2 µM
Cc1ccc(Nc2nc3c(s2)C(=O)c2ccccc2C3=O)c(C)c1 = > 100 µM
Cc1[nH]c(=O)[nH]c(=O)c1/C=C/C(=O)NC(CO)CC(C)C (stereo unspecified) = > 237 µM
Cc1ccc(N(C(=O)CC(=O)NN)C(=O)c2ccccc2Cl)cc1 = > 100 µM

Read the next record carefully.
QUERY: What value of TGI has been reported for the following molecule? `CC1(n2nc(-c3ccccc3)n(-c3ccccc3)c2=O)CSC1`
RESULT: > 100 µM
